# TARGET_SYSTEM: CD28 (human) (UniProt P10747)
# TEST: flow cytometry, Jurkat/IL2 reporter cells (endogenous CD28)
METRIC_NAME: MFI at 33.3 nM (MFI)

>  <BINDER>
variant CD80 IgV-Fc Q33L/E35D/N48K/L85Q/L97Q (Fc fusion) VIHVTKEVKEVATLSCGHNVSVEELAQTRIYWLKDKKMVLTMMSGDMKIWPEYKNRTIFDITNNLSIVILALRPSDEGTYECVVQKYEKDAFKREHQAEVTLSVKAD

>  <METRIC_NAME>
MFI at 33.3 nM

>  <MEASURED>
279

$$$$
>  <BINDER>
variant CD80 IgV-Fc Q33L/E35D/M47L/V68M/L85Q/E88D (Fc fusion) VIHVTKEVKEVATLSCGHNVSVEELAQTRIYWLKDKKMVLTMMSGDLNIWPEYKNRTIFDITNNLSIMILALRPSDEGTYECVVQKYDKDAFKREHLAEVTLSVKAD

>  <METRIC_NAME>
MFI at 33.3 nM

>  <MEASURED>
264

$$$$
>  <BINDER>
variant CD80 IgV-Fc Q27H/Q33L/E35D/M47V/N55D/L85Q/K89N (Fc fusion) VIHVTKEVKEVATLSCGHNVSVEELAHTRIYWLKDKKMVLTMMSGDVNIWPEYKDRTIFDITNNLSIVILALRPSDEGTYECVVQKYENDAFKREHLAEVTLSVKAD

>  <METRIC_NAME>
MFI at 33.3 nM

>  <MEASURED>
269

$$$$
>  <BINDER>
variant CD80 IgV-Fc Q33L/E35D/M47I (Fc fusion) VIHVTKEVKEVATLSCGHNVSVEELAQTRIYWLKDKKMVLTMMSGDINIWPEYKNRTIFDITNNLSIVILALRPSDEGTYECVVLKYEKDAFKREHLAEVTLSVKAD

>  <METRIC_NAME>
MFI at 33.3 nM

>  <MEASURED>
282

$$$$
>  <BINDER>
variant CD80 IgV-Fc Q33L/E35D/T41S/M47V (Fc fusion) VIHVTKEVKEVATLSCGHNVSVEELAQTRIYWLKDKKMVLSMMSGDVNIWPEYKNRTIFDITNNLSIVILALRPSDEGTYECVVLKYEKDAFKREHLAEVTLSVKAD

>  <METRIC_NAME>
MFI at 33.3 nM

>  <MEASURED>
287

$$$$
>  <BINDER>
variant CD80 IgV-Fc A26E/Q33L/E35D/M47L/L85Q (Fc fusion) VIHVTKEVKEVATLSCGHNVSVEELEQTRIYWLKDKKMVLTMMSGDLNIWPEYKNRTIFDITNNLSIVILALRPSDEGTYECVVQKYEKDAFKREHLAEVTLSVKAD

>  <METRIC_NAME>
MFI at 33.3 nM

>  <MEASURED>
274

$$$$
>  <BINDER>
variant CD80 IgV-Fc Q33K/E35D/M47V/K89E/K93R (Fc fusion) VIHVTKEVKEVATLSCGHNVSVEELAQTRIYWKKDKKMVLTMMSGDVNIWPEYKNRTIFDITNNLSIVILALRPSDEGTYECVVLKYEEDAFRREHLAEVTLSVKAD

>  <METRIC_NAME>
MFI at 33.3 nM

>  <MEASURED>
276

$$$$
>  <BINDER>
variant CD80 IgV-Fc V22A/R29H/E35D/D46E/M47I (Fc fusion) VIHVTKEVKEVATLSCGHNVSAEELAQTHIYWQKDKKMVLTMMSGEINIWPEYKNRTIFDITNNLSIVILALRPSDEGTYECVVLKYEKDAFKREHLAEVTLSVKAD

>  <METRIC_NAME>
MFI at 33.3 nM

>  <MEASURED>
323

$$$$

These data points were gathered from patent US20220177587A1.
